Target: T1, GFP-9S library array, motif 4 ND D124N (synthetic construct, D124N)
T1 chain: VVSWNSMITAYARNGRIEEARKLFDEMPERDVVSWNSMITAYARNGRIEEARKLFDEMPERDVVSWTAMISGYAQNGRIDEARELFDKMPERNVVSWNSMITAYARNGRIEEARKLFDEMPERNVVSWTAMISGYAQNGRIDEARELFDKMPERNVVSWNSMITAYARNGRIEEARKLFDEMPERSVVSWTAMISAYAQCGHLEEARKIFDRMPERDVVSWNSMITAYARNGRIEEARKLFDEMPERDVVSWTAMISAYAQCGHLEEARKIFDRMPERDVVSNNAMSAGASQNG
Assay: high-throughput RNA pulldown from lysate on Ni-NTA beads; HRP: 50 mM Tris pH 8, 150 mM NaCl, 1 mM beta-mercaptoethanol, 50 ug/ml BSA, 3 ug/ml yeast RNA, 0.5% heparin; ITC and FP: Tris pH 8, 200 mM KCl, 5% glycerol; MST: 50 mM Tris pH 8, 200 mM NaCl, 1 mM DTT, BSA, heparin, 0.05% Tween 20
Conditions: tags: N-terminal His-eGFP; label: 5' Cy5
assay-metric: Kd (nM)

# binder, result-number
rows = [
    ("AUUAGACGUGA (ssRNA) [Cy5-rpoA-G]", 178),
    ("AUUACACGUGA (ssRNA) [Cy5-rpoA]", 3.13),
]
